Measured values drawn from the supplement of paper PMC11451515 for this set.

Would you kindly list cell viability for each of these molecules?
# Tested on: SEM cells
# EXPERIMENTAL PROTOCOL: cell viability relative to DMSO control; higher = less cytotoxic
# CONDITION PARAMETERS: RPMI 5 mM glucose + 10% FBS; 48 h; 0.000781 µM
Give bare numbers, in %.

Examples with answers:
COC1=CC=C(C=C1)C/2=C/OC3=C(C(=CC(=C3)O)O)C2=O 90.7
CCn1c(-c2nonc2N)nc2cnc(Oc3cccc(NC(=O)c4ccc(OCCN5CCOCC5)cc4)c3)cc21 102
CC[C@@]1(O)C(=O)OC\C2=C1\C=C3/N(CC4=CC5=C(C=CC(=C5CN(C)C)O)N=C34)C2=O 101

Now consider the entry below.
Please give measured cell viability of the following entry: `COc1ccc(-c2nc(N3CCOCC3)c3sc(CN(C)c4ncc(C(=O)NO)cn4)cc3n2)cn1`
90.5
